- Target or system: human PDE10A2 (Homo sapiens (Human))
- Sequence (Q9Y233 267-1055): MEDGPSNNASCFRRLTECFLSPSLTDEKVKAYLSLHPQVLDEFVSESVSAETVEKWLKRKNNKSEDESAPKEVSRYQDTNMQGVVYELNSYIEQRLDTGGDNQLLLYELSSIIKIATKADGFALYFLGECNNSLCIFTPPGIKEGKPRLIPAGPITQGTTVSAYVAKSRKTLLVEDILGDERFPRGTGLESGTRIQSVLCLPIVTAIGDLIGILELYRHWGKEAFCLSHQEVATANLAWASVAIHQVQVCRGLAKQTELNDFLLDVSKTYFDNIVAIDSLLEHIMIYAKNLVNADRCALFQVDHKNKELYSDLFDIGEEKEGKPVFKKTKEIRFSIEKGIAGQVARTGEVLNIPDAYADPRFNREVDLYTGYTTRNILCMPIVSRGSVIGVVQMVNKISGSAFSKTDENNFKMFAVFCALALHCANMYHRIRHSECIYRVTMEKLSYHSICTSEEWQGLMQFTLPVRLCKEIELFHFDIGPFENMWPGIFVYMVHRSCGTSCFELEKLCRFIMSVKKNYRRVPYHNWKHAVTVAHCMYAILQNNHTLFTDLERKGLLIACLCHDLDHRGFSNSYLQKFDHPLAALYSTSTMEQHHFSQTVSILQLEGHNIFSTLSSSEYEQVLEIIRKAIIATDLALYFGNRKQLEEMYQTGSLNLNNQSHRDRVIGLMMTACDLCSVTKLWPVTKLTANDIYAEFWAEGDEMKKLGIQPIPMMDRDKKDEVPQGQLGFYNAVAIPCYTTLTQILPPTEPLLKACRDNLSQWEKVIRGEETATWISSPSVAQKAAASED
- Experiment description: PDE10 fluorescence polarization (IMAP FP) inhibition assay
- Format: biochemical
- Condition details: read-out: PDE10A Ki
Field: label. Allowed values: yes (Ki < 0.6 nM) or no (Ki >= 0.6 nM).

Use these answered entries as a reference point.
>  <Molecule>
COc1ccc([C@H]2C[C@@H]2COc2cc(NCc3nnc(C)s3)nc(N)n2)nc1

>  <Category label>
yes

$$$$
>  <Molecule>
Cc1nc(NCc2cnn(C)c2)cc(OCC2CC2c2ccccn2)n1 (stereo not drawn)

>  <Category label>
yes

$$$$
>  <Molecule>
Cc1ccc([C@H]2C[C@@H]2COc2nc(N)nc(NCc3nnc(C)s3)c2C#N)nc1

>  <Category label>
no

$$$$

Just wondering, is Ki of `Cc1nc(NCc2nnc(C)s2)cc(OC[C@H]2C[C@@H]2c2ccc3ncccc3n2)n1` below 0.6 nM?
yes

Here's an entry: Cc1nc(NCc2cnn(C)c2)cc(OC[C@H]2C[C@@H]2c2ccc(C(F)F)cn2)n1 (stereo in doubt) . Is its Ki below 0.6 nM?
no

Reference source for all entries: patent US9062059B2
